# test system: HCV NS3/4A 1b protease A156T (Hepatitis C virus genotype 1b, UniProt Q9WMX2, A1182T)
# Construct: 10× stocks of NS3/4A protease enzyme from Bioenza (Mountain View, Calif.); purchased Bioenza (Mountain View, Calif.)
# procedure details: HCV protease FRET assay (IC50), Example 15
# Type: biochemical
# condition context: Comparative IC50 Values, A156T, biochemical assay; applicant's compound
parameter measured: IC50 (nM)
Give your result in nM as a bare value.

-- ask Please give measured IC50 of the following entry: C=CC(=O)NC[C@H](NC(=O)OC(C)(C)C)C(=O)N1C[C@H](OC(=O)N2Cc3cccc(F)c3C2)C[C@H]1C(=O)N[C@]1(C(=O)NS(=O)(=O)C2CC2)C[C@H]1C=C
-- reply 3
